Tested on: Syncephalastrum racemosum
experimentalDetails: Antimicrobial activity against Syncephalastrum racemosum by serial dilution technique
Format: functional
A collection of compounds and their measured MIC
The reply should be a number in µg/mL, with the unit left off.

• Cc1c(C(=O)Nc2ccccc2C(=O)O)oc2ccccc12 = 250

INPUT: Test system Syncephalastrum racemosum; read-out MIC; what value for `Cc1c(-c2nc3ccccc3c(=O)o2)oc2ccccc12` ?
OUTPUT: 250

INPUT: Entry `Cc1c(C(=O)NNC(=O)c2oc3ccccc3c2C)oc2ccccc12` please
OUTPUT: 50

INPUT: Entry `Cc1c(-c2n[nH]cc2C#N)oc2ccccc12` please
OUTPUT: 50

###

Test system: Escherichia coli
experimentalDetails: Antibacterial activity against Escherichia coli at 100 ug after 24 to 48 hrs by diffusion agar technique
Format: functional
statedConditions: read-out: IZ
A collection of compounds and their measured zone of inhibition at 100 µg/disc

- Cc1c(C(=O)NN/C=C(\NNC(=O)c2oc3ccccc3c2C)c2ccc(Cl)cc2)oc2ccccc12: 3 mm
- Cc1c(C(=O)/C(C#N)=N/O)oc2ccccc12: 8 mm
- Cc1c(C(=O)NN/C=C(\NNC(=O)c2oc3ccccc3c2C)c2ccccc2)oc2ccccc12: 5 mm
- Cc1c(-c2cc(N)n(-c3ccccc3)n2)oc2ccccc12: 5 mm

INPUT: Test system Escherichia coli; read-out zone of inhibition at 100 µg/disc; what value for `CC1(C)S[C@@H]2[C@H](NC(=O)[C@H](N)c3ccc(O)cc3)C(=O)N2[C@H]1C(=O)O` ?
OUTPUT: 30 mm

###

Test system: Staphylococcus aureus
experimentalDetails: Antibacterial activity against Staphylococcus aureus at 100 ug after 24 to 48 hrs by diffusion agar technique
Type: functional
statedConditions: read-out: IZ
Think of 10 mm as a floor: if zone of inhibition at 100 µg/disc stands on it or above, it is met; beneath it, not met.

Sample answers from the record:
- Cc1c(-c2cc(N)n(-c3ccccc3)n2)oc2ccccc12: not met
- Cc1c(C(=O)NN/C=C(\NNC(=O)c2oc3ccccc3c2C)c2ccccc2)oc2ccccc12: met
- CCO/C=C(\C#N)C(=O)c1oc2ccccc2c1C: met
- Cc1c(C(=O)Nc2ccccc2C(=O)O)oc2ccccc12: not met
- Cc1ccc(N/N=C(\C#N)C(=O)c2oc3ccccc3c2C)cc1: not met

Let us examine a further case.
INPUT: Record `Cc1c(C(=O)/C(C#N)=N/O)oc2ccccc12` ; criterion: zone of inhibition at 100 µg/disc no lower than 10 mm. Met?
OUTPUT: met

###

System: Candida albicans
experimentalDetails: Antifungal activity against Candida albicans at 100 ug after 24 to 48 hrs by diffusion agar technique
Assay type: functional
statedConditions: read-out: IZ
A collection of molecules and their measured zone of inhibition at 100 µg/disc
The reply should be a number in mm, with the unit left off.

Take a look at these entries with their results.
* CN(C/C=C/C#CC(C)(C)C)Cc1cccc2ccccc12 [TERBINAFINE] | 30
* Cc1ccc(N/N=C(\C#N)C(=O)c2oc3ccccc3c2C)cc1 | 20
* Cc1c(-c2cc(N)n(-c3ccccc3)n2)oc2ccccc12 | 9
* Cc1c(-c2n[nH]cc2C#N)oc2ccccc12 | 12
* Cc1c(C(=O)/C(C#N)=N/Nc2ccc(Cl)cc2)oc2ccccc12 | 16

Shift focus to the following entry.
INPUT: Given `Cc1c(C(=O)/C(C#N)=N/O)oc2ccccc12` , state its recorded zone of inhibition at 100 µg/disc.
OUTPUT: 18

###

A collection of molecules and their measured zone of inhibition at 100 µg/disc
System: Candida albicans
experimentalDetails: Antifungal activity against Candida albicans at 100 ug after 24 to 48 hrs by diffusion agar technique
Type: functional
statedConditions: read-out: IZ

Take a look at these entries with their results.
* CCO/C=C(\C#N)C(=O)c1oc2ccccc2c1C | 10 mm
* Cc1c(C(=O)NNC(=O)c2oc3ccccc3c2C)oc2ccccc12 | 6 mm

Shift focus to the following entry.
INPUT: Given `Cc1c(-c2nc3ccccc3c(=O)o2)oc2ccccc12` , state its recorded zone of inhibition at 100 µg/disc.
OUTPUT: 7 mm

###

System: Aspergillus fumigatus
experimentalDetails: Antifungal activity against Aspergillus fumigatus at 100 ug after 24 to 48 hrs by diffusion agar technique
Format: functional
statedConditions: read-out: IZ
Think of 10 mm as a floor: if zone of inhibition at 100 µg/disc stands on it or above, it is Satisfied; beneath it, Not satisfied.

INPUT: Record `Cc1ccc(N/N=C(\C#N)C(=O)c2oc3ccccc3c2C)cc1` ; criterion: zone of inhibition at 100 µg/disc no lower than 10 mm. Met?
OUTPUT: Satisfied

INPUT: Entry `CN(C/C=C/C#CC(C)(C)C)Cc1cccc2ccccc12` please
OUTPUT: Satisfied

###

System: Staphylococcus aureus
experimentalDetails: Antibacterial activity against Staphylococcus aureus at 100 ug after 24 to 48 hrs by diffusion agar technique
Assay type: functional
statedConditions: read-out: IZ
Think of 5 mm as a floor: if zone of inhibition at 100 µg/disc stands on it or above, it is Criterion met; beneath it, Criterion not met.

INPUT: Record `Cc1c(-c2n[nH]cc2C#N)oc2ccccc12` ; criterion: zone of inhibition at 100 µg/disc no lower than 5 mm. Met?
OUTPUT: Criterion met

INPUT: Entry `Cc1c(-c2nc3ccccc3c(=O)o2)oc2ccccc12` please
OUTPUT: Criterion not met

INPUT: Entry `Cc1c(C(=O)NNC(=O)c2oc3ccccc3c2C)oc2ccccc12` please
OUTPUT: Criterion not met

INPUT: Entry `CC1(C)S[C@@H]2[C@H](NC(=O)[C@H](N)c3ccc(O)cc3)C(=O)N2[C@H]1C(=O)O` please
OUTPUT: Criterion met

INPUT: Entry `Cc1c(C(=O)NN/C=C(\NNC(=O)c2oc3ccccc3c2C)c2ccc(Cl)cc2)oc2ccccc12` please
OUTPUT: Criterion not met

###

System: Aspergillus fumigatus
experimentalDetails: Antifungal activity against Aspergillus fumigatus at 100 ug after 24 to 48 hrs by diffusion agar technique
Type: functional
statedConditions: read-out: IZ
A collection of compounds and their measured zone of inhibition at 100 µg/disc
The reply should be a number in mm, with the unit left off.

Take a look at these entries with their results.
* Cc1c(C(=O)NN/C=C(\NNC(=O)c2oc3ccccc3c2C)c2ccc(Cl)cc2)oc2ccccc12 | 10
* Cc1c(-c2cc(N)n(-c3ccccc3)n2)oc2ccccc12 | 10

INPUT: Given `Cc1c(-c2n[nH]cc2C#N)oc2ccccc12` , state its recorded zone of inhibition at 100 µg/disc.
OUTPUT: 20

INPUT: Entry `CCO/C=C(\C#N)C(=O)c1oc2ccccc2c1C` please
OUTPUT: 19

INPUT: Entry `Cc1c(-c2nc3ccccc3c(=O)o2)oc2ccccc12` please
OUTPUT: 8

INPUT: Entry `Cc1c(C(=O)/C(C#N)=N/O)oc2ccccc12` please
OUTPUT: 8

INPUT: Entry `Cc1c(C(=O)NNC(=O)c2oc3ccccc3c2C)oc2ccccc12` please
OUTPUT: 4
